Numbers sourced from patent US20060211610A1.

# TARGET_OR_TEST_SYSTEM: T1, Y1 receptor (human, UniProt P25929 1-384)
# T1 construct: whole, on cells; Assayed as membrane homogenates of SK-N-MC cells, not intact cells; also called NPY Y1
# T1 sequence (looked up): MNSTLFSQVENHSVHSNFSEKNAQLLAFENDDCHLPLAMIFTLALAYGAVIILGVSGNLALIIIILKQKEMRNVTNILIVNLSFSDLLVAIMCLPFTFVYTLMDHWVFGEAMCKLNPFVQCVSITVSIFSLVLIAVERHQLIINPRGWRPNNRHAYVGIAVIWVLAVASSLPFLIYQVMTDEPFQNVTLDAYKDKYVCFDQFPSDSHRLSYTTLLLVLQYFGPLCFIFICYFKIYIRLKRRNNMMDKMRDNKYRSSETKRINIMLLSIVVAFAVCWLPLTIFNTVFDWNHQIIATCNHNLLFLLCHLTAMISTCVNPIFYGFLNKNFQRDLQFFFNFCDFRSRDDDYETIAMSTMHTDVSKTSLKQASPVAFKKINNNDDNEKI
# RUN_DESCRIPTION: radioligand competition against [125I-Leu31,Pro34]PYY, SK-N-MC membranes, Cheng-Prusoff
Non-standard residues stand in square brackets, D forms with d. 3Pal = N[C@@H](Cc1cccnc1)C(=O)O; Ac6c = NC1(C(=O)O)CCCCC1
MEASURED_ATTRIBUTE: Ki

Use the examples below as a reference point.
Exercise: Which Ki value belongs to Ac-ASLRHY[Ac6c]NLVTRQRY-NH2 (SMILES CC(=O)N[C@@H](C)C(=O)N[C@@H](CO)C(=O)N[C@@H](CC(C)C)C(=O)N[C@@H](CCCNC(=N)N)C(=O)N[C@@H](Cc1c[nH]cn1)C(=O)N[C@@H](Cc1ccc(O)cc1)C(=O)NC1(C(=O)N[C@@H](CC(N)=O)C(=O)N[C@@H](CC(C)C)C(=O)N[C@H](C(=O)N[C@H](C(=O)N[C@@H](CCCNC(=N)N)C(=O)N[C@@H](CCC(N)=O)C(=O)N[C@@H](CCCNC(=N)N)C(=O)N[C@@H](Cc2ccc(O)cc2)C(N)=O)[C@@H](C)O)C(C)C)CCCCC1, Synthetic analog of human PYY(22-36)) [Ac-[A6c^28]hPYY(22-36)NH2] ?
Key: < 2000 nM

Exercise: Which Ki value belongs to Ac-LRHYLNL[Ac6c]TRQRY-NH2 (SMILES CC(=O)N[C@@H](CC(C)C)C(=O)N[C@@H](CCCNC(=N)N)C(=O)N[C@@H](Cc1c[nH]cn1)C(=O)N[C@@H](Cc1ccc(O)cc1)C(=O)N[C@@H](CC(C)C)C(=O)N[C@@H](CC(N)=O)C(=O)N[C@@H](CC(C)C)C(=O)NC1(C(=O)N[C@H](C(=O)N[C@@H](CCCNC(=N)N)C(=O)N[C@@H](CCC(N)=O)C(=O)N[C@@H](CCCNC(=N)N)C(=O)N[C@@H](Cc2ccc(O)cc2)C(N)=O)[C@@H](C)O)CCCCC1, Synthetic analog of human PYY(24-36)) [Ac-[A6C^31]hPYY(24-36)NH2] ?
Key: < 2000 nM

Please turn your attention to the following entry.
Exercise: Which Ki value belongs to Ac-ASLR[3Pal]YLNLVTRQRY-NH2 (SMILES CC(=O)N[C@@H](C)C(=O)N[C@@H](CO)C(=O)N[C@@H](CC(C)C)C(=O)N[C@@H](CCCNC(=N)N)C(=O)N[C@@H](Cc1cccnc1)C(=O)N[C@@H](Cc1ccc(O)cc1)C(=O)N[C@@H](CC(C)C)C(=O)N[C@@H](CC(N)=O)C(=O)N[C@@H](CC(C)C)C(=O)N[C@H](C(=O)N[C@H](C(=O)N[C@@H](CCCNC(=N)N)C(=O)N[C@@H](CCC(N)=O)C(=O)N[C@@H](CCCNC(=N)N)C(=O)N[C@@H](Cc1ccc(O)cc1)C(N)=O)[C@@H](C)O)C(C)C, Synthetic analog of human PYY(22-36)) [Ac-[3Pal^26]hPYY(22-36)NH2] ?
Key: < 2000 nM
